- protocol_details: Cytotoxicity against MRC-5 cell line
- measurement_conditions: human, cytotoxicity IC50, MRC-5 cell line
experimental_readout: IC50

Exam item: Note IC50 for the molecule shown: "N#Cc1c(-c2cccs2)[n+]([O-])c2ccc(C3OCCO3)cc2[n+]1[O-]"
Marked response: 5.9 µg/mL

Exam item: Give recorded IC50. "N#Cc1c(-c2ccccc2)[n+]([O-])c2ccc(/C=N/NC(=O)c3ccncc3)cc2[n+]1[O-]"
Marked response: 8.6 µg/mL

Exam item: Please supply the value of reported IC50 for the item "Nc1cccc(C(=O)N/N=C/c2ccc3no[n+]([O-])c3c2)c1"
Marked response: 24.4 µg/mL

Exam item: Fill in IC50 for record "O=C(N/N=C/c1ccc2no[n+]([O-])c2c1)c1ccccc1"
Marked response: 36.8 µg/mL

Exam item: Tell us which IC50 value is on record for "CC(C)(C)c1ccc(C(=O)N/N=C/c2ccc3no[n+]([O-])c3c2)cc1"
Marked response: 8.5 µg/mL

Exam item: Consider the molecule "N#Cc1c(-c2ccc(F)cc2)[n+]([O-])c2ccc(C3OCCO3)cc2[n+]1[O-]" and give its recorded IC50.
Marked response: 7.7 µg/mL

Exam item: Identify measured IC50 corresponding to "Nc1ccccc1C(=O)N/N=C/c1ccc2no[n+]([O-])c2c1"
Marked response: 36.4 µg/mL

Exam item: Read the entry "NC(=O)c1c(COc2cccc(/C=N/NC(=O)c3ccncc3)c2)no[n+]1[O-]" and write its reported IC50.
Marked response: 490 µg/mL

Exam item: Quote IC50 reported for "Nc1ccc(C(=O)N/N=C/c2ccc3no[n+]([O-])c3c2)cc1" please.
Marked response: 250 µg/mL

Exam item: Give the reported value of IC50 for this record: "N#Cc1c(-c2ccccc2)[n+]([O-])c2ccc(C3OCCO3)cc2[n+]1[O-]"
Marked response: 10.7 µg/mL

====

- protocol_details: Cytotoxicity against MRC-5 cell line
- measurement_conditions: human, cytotoxicity IC50, MRC-5 cell line
experimental_readout: IC50 (µg/mL)
# unit: µg/mL | format: bare number

Exam item: Kindly indicate its recorded IC50. Item: N#Cc1c(-c2ccco2)[n+]([O-])c2ccc(C3OCCO3)cc2[n+]1[O-] [Compound 25]
Marked response: 11.6

Exam item: Output measured IC50 for this item: COc1ccc(-c2c(C#N)[n+]([O-])c3cc(C4OCCO4)ccc3[n+]2[O-])cc1 [Compound 22]
Marked response: 5.5

Exam item: Provide measured IC50 value, entry: N#Cc1c(-c2ccc(Cl)cc2)[n+]([O-])c2ccc(C3OCCO3)cc2[n+]1[O-] [Compound 21]
Marked response: 5

Exam item: Give IC50 for the following molecule: NC(=O)c1c(COc2ccccc2/C=N/NC(=O)c2ccncc2)no[n+]1[O-] [Compound 4a]
Marked response: 327

====

- Tested on: Staphylococcus aureus (ATCC 29213)
experimental_readout: MIC90

Exam item: Let me know recorded MIC90 for O=C(N/N=C/c1ccc2no[n+]([O-])c2c1)c1ccncc1 [Compound 8] , thanks.
Marked response: > 200 µM

Exam item: Tell me measured MIC90 for O=C(N/N=C/c1ccc2no[n+]([O-])c2c1)c1ccc([N+](=O)[O-])cc1 [Compound 11] please.
Marked response: > 200 µM

Exam item: Query MIC90 for O=C(N/N=C/c1ccc2no[n+]([O-])c2c1)c1ccc(O)cc1 [Compound 14]
Marked response: > 200 µM

Exam item: Return the recorded MIC90 value; entry: Nc1ccc(C(=O)N/N=C/c2ccc3no[n+]([O-])c3c2)cc1 [Compound 17]
Marked response: > 200 µM

====

- Tested on: Mtb H37Rv (ATCC 27294)
- protocol_details: Resazurin microtiter assay (REMA), MIC90 against bacteria in active state
- Type: cell-based
- measurement_conditions: Mycobacterium tuberculosis, actively replicating M. tuberculosis H37Rv, REMA; read-out: MIC90
Hi there, I'd appreciate the recorded MIC90 for every entry that follows.
Numeric only. Scale: mg/L

Exam item: Report measured MIC90; entry is Nc1cccc(C(=O)N/N=C/c2ccc3no[n+]([O-])c3c2)c1 [Compound 16]
Marked response: 5.3

Exam item: Give reported MIC90 value for Nc1ccc(C(=O)N/N=C/c2ccc3no[n+]([O-])c3c2)cc1 [Compound 17]
Marked response: 3.16

Exam item: State its MIC90 for this molecule: N#Cc1c(-c2ccc(F)cc2)[n+]([O-])c2ccc(C3OCCO3)cc2[n+]1[O-] [Compound 23]
Marked response: 8.6

Exam item: # return recorded MIC90 for entry N#Cc1c(-c2ccc(Cl)cc2)[n+]([O-])c2ccc(C3OCCO3)cc2[n+]1[O-] [Compound 21]
Marked response: 6.4

Exam item: Supply measured MIC90 of NNC(=O)c1ccncc1 [isoniazid, reference compound] in your reply.
Marked response: 0.014

Exam item: Indicate its recorded MIC90; the molecule in question is Cc1ccc(-c2c(C#N)[n+]([O-])c3cc(C4OCCO4)ccc3[n+]2[O-])cc1 [Compound 20]
Marked response: 5.7

Exam item: Tell me its MIC90 given NC(=O)c1c(COc2ccccc2/C=N/NC(=O)c2ccncc2)no[n+]1[O-] [Compound 4a] as the entry.
Marked response: 0.16

Exam item: Answer with the recorded MIC90 of COc1ccc(-c2c(C#N)[n+]([O-])c3cc(C4OCCO4)ccc3[n+]2[O-])cc1 [Compound 22] only.
Marked response: 4.4

Exam item: Give a short answer stating reported MIC90 for N#Cc1c(-c2ccccc2)[n+]([O-])c2ccc(C3OCCO3)cc2[n+]1[O-] [Compound 19] .
Marked response: 10.3

Exam item: // fetch MIC90 given entry N#Cc1c(-c2ccc(OC(F)(F)F)cc2)[n+]([O-])c2ccc(C3OCCO3)cc2[n+]1[O-] [Compound 24]
Marked response: 6.5

Exam item: Specify MIC90 for N#Cc1c(-c2cccs2)[n+]([O-])c2ccc(C3OCCO3)cc2[n+]1[O-] [Compound 26] and stop.
Marked response: 4.1

Exam item: Specify reported MIC90 for the molecule shown: N#Cc1c(-c2ccccc2)[n+]([O-])c2ccc(/C=N/NC(=O)c3ccncc3)cc2[n+]1[O-] [Compound 28]
Marked response: 16.3

Exam item: Fill in MIC90 for record N#Cc1c(-c2ccco2)[n+]([O-])c2ccc(C3OCCO3)cc2[n+]1[O-] [Compound 25]
Marked response: 1.7

Exam item: Please look at this molecule and report its MIC90: CC(C)(C)c1ccc(C(=O)N/N=C/c2ccc3no[n+]([O-])c3c2)cc1 [Compound 10]
Marked response: 1.3

Exam item: Look up MIC90 of O=C(N/N=C/c1ccc2no[n+]([O-])c2c1)c1ccccc1 [Compound 9] and report it.
Marked response: 2.4

Exam item: Fill in reported MIC90 for this entry: NC(=O)c1c(COc2ccc(/C=N/NC(=O)c3ccncc3)cc2)no[n+]1[O-] [Compound 4c]
Marked response: 0.16

====

- protocol_details: Cytotoxicity against MRC-5 cell line
- measurement_conditions: human, cytotoxicity IC50, MRC-5 cell line
experimental_readout: IC50 (µg/mL)
Numeric answer only, unit µg/mL assumed.

Exam item: Give a short answer stating reported IC50 for "N#Cc1c(-c2ccc(OC(F)(F)F)cc2)[n+]([O-])c2ccc(C3OCCO3)cc2[n+]1[O-]" .
Marked response: 28

Exam item: Given "NC(=O)c1c(COc2ccc(/C=N/NC(=O)c3ccncc3)cc2)no[n+]1[O-]" , respond with its IC50.
Marked response: 443

Exam item: Answer with the recorded IC50 for the compound listed here: "Cc1ccc(-c2c(C#N)[n+]([O-])c3cc(C4OCCO4)ccc3[n+]2[O-])cc1"
Marked response: 6.2

Exam item: Item "O=C(N/N=C/c1ccc2no[n+]([O-])c2c1)c1ccncc1" : provide IC50
Marked response: 147

====

- Test system: cytochrome P450 isoforms (all isoforms tested)
- protocol_details: in vitro
- measurement_conditions: human, microsomes
experimental_readout: IC50

Exam item: Report measured IC50; entry is "O=C(N/N=C/c1ccc2no[n+]([O-])c2c1)c1ccncc1"
Marked response: > 15 µM

====

I'd be grateful if you could share measured MIC90 for these entries.
- System: Mtb H37Rv (ATCC 27294)
- protocol_details: Resazurin microtiter assay (REMA), MIC90 against bacteria in active state
- Format: cell-based
- measurement_conditions: Mycobacterium tuberculosis, actively replicating M. tuberculosis H37Rv, REMA; read-out: MIC90

Exam item: // Input: "O=C(N/N=C/c1ccc2no[n+]([O-])c2c1)c1ccc(O)cc1" . Output its MIC90 only.
Marked response: > 25 µg/mL

Exam item: Report MIC90 for "NC(=O)c1c(COc2cccc(/C=N/NC(=O)c3ccncc3)c2)no[n+]1[O-]"
Marked response: 0.15 µg/mL

Exam item: Retrieve MIC90 measured for "O=C(N/N=C/c1ccc2no[n+]([O-])c2c1)c1ccc([N+](=O)[O-])cc1" and print it.
Marked response: 1.73 µg/mL

Exam item: Return the recorded MIC90 value; entry: "Nc1ccccc1C(=O)N/N=C/c1ccc2no[n+]([O-])c2c1"
Marked response: 3.7 µg/mL

Data origin: paper PMC5677254
